system: Pseudomonas aeruginosa W27; assay: MIC on clinically isolated bacteria; type: cell-based; conditions: read-out: MIC
EXPERIMENTAL READOUT: MIC (µg/mL)
Give your result in µg/mL as a bare value.

COMPOUND: CC1(C)[C@H](NC(=O)/C(=N\O[C@@H](COc2ccc3c(c2)CN(C(=N)NCCN)C3)C(=O)O)c2csc(N)n2)C(=O)N1OS(=O)(=O)O
TARGET DESC: Pseudomonas aeruginosa W27
MIC [µg/mL]: 4
//
COMPOUND: C[C@H]1[C@H](NC(=O)/C(=N\OC(C)(C)C(=O)O)c2csc(N)n2)C(=O)N1S(=O)(=O)O [Aztreonam, reference compound]
TARGET DESC: Pseudomonas aeruginosa W27
MIC [µg/mL]: 32

Here's the next entry for you.
Test system Pseudomonas aeruginosa W27; read-out MIC; what value for C[C@@H](O)[C@H]1C(=O)N2C(C(=O)O)=C(S[C@@H]3CN[C@H](C(=O)N(C)C)C3)[C@H](C)[C@H]12 [Meropenem, reference compound] ?
32

====

tested on: Pseudomonas aeruginosa W24; test: MIC on clinically isolated bacteria; type: cell-based; conditions: read-out: MIC
EXPERIMENTAL READOUT: MIC (µg/mL)
Give your result in µg/mL as a bare value.

COMPOUND: CC1(C)[C@H](NC(=O)/C(=N\O[C@@H](COc2ccc3c(c2)CN(C(=N)N[C@@H]2CCCNC2)C3)C(=O)O)c2csc(N)n2)C(=O)N1OS(=O)(=O)O
MIC (µg/mL): 2

Look up MIC: CC1(C)[C@H](NC(=O)/C(=N\O[C@@H](COc2ccc3c(c2)CN(C(=N)NOCCN)C3)C(=O)O)c2csc(N)n2)C(=O)N1OS(=O)(=O)O
8

Look up MIC: C[C@@H](O)[C@H]1C(=O)N2C(C(=O)O)=C(S[C@@H]3CN[C@H](C(=O)N(C)C)C3)[C@H](C)[C@H]12 [Meropenem, reference compound]
16

====

# log10 of MIC per entry
system: Acinetobacter baumannii C330; experiment: MIC on clinically isolated bacteria; assay type: cell-based; conditions: Acinetobacter baumannii C330; read-out: Minimum Inhibitory Concentration (MIC)
Scale: decimal log of MIC, MIC in µg/mL.

Worked set:
MOLECULE: CC1(C)[C@H](NC(=O)/C(=N\O[C@@H](COc2ccc3c(c2)CN(/C(=N\[C@@H]2CCCNC2)N[C@@H]2CCCNC2)C3)C(=O)O)c2csc(N)n2)C(=O)N1OS(=O)(=O)O [Compound 46]
log10 of MIC: 0.60
--
MOLECULE: C[C@@H](O)[C@H]1C(=O)N2C(C(=O)O)=C(S[C@@H]3CN[C@H](C(=O)N(C)C)C3)[C@H](C)[C@H]12 [Meropenem, reference compound]
log10 of MIC: 1.81
--
MOLECULE: CC1(C)[C@H](NC(=O)/C(=N\O[C@@H](COc2ccc3c(c2)CN(C(=N)NCCN)C3)C(=O)O)c2csc(N)n2)C(=O)N1OS(=O)(=O)O [Compound 44]
log10 of MIC: 0.00
--
MOLECULE: CC1(C)[C@H](NC(=O)/C(=N\O[C@@H](COc2ccc3c(c2)CN(C(=N)NCCCCN)C3)C(=O)O)c2csc(N)n2)C(=O)N1OS(=O)(=O)O [Compound 36]
log10 of MIC: 0.30
--
MOLECULE: CC1(C)[C@H](NC(=O)/C(=N\O[C@@H](COc2ccc3c(c2)CN(C(=N)N(CCN)CCN)C3)C(=O)O)c2csc(N)n2)C(=O)N1OS(=O)(=O)O [Compound 45]
log10 of MIC: 1.20
--
MOLECULE: CC1(C)[C@H](NC(=O)/C(=N\O[C@@H](COc2ccc3c(c2)CN(C(=N)N[C@@H]2CCCNC2)C3)C(=O)O)c2csc(N)n2)C(=O)N1OS(=O)(=O)O [Compound 41]
log10 of MIC: 0.30
--
MOLECULE: C[C@H]1[C@H](NC(=O)/C(=N\OC(C)(C)C(=O)O)c2csc(N)n2)C(=O)N1S(=O)(=O)O [Aztreonam, reference compound]
log10 of MIC: 1.81

Here's the next entry for you.
Look up log10 of MIC: CC1(C)[C@H](NC(=O)/C(=N\O[C@@H](COc2ccc3c(c2)CN(C(=N)NOCCN)C3)C(=O)O)c2csc(N)n2)C(=O)N1OS(=O)(=O)O [Compound 43]
0.90

====

test system: Pseudomonas aeruginosa W32; assay: MIC on clinically isolated bacteria; type: cell-based; conditions: read-out: MIC
# log10(MIC) per entry
Scale: decimal log of MIC, MIC in µg/mL.

Worked set:
COMPOUND: CC1(C)[C@H](NC(=O)/C(=N\O[C@@H](COc2ccc3c(c2)CN(C(=N)N(CCN)CCN)C3)C(=O)O)c2csc(N)n2)C(=O)N1OS(=O)(=O)O
TARGET DESC: Pseudomonas aeruginosa W32
log10(MIC): 1.20
--
COMPOUND: C[C@H]1[C@H](NC(=O)/C(=N\OC(C)(C)C(=O)O)c2csc(N)n2)C(=O)N1S(=O)(=O)O [Aztreonam, reference compound]
TARGET DESC: Pseudomonas aeruginosa W32
log10(MIC): 1.51
--
COMPOUND: CC1(C)[C@H](NC(=O)/C(=N\O[C@@H](COc2ccc3c(c2)CN(/C(=N\[C@@H]2CCCNC2)N[C@@H]2CCCNC2)C3)C(=O)O)c2csc(N)n2)C(=O)N1OS(=O)(=O)O
TARGET DESC: Pseudomonas aeruginosa W32
log10(MIC): 0.00
--
COMPOUND: CC1(C)[C@H](NC(=O)/C(=N\O[C@@H](COc2ccc3c(c2)CN(C(=N)NOCCN)C3)C(=O)O)c2csc(N)n2)C(=O)N1OS(=O)(=O)O
TARGET DESC: Pseudomonas aeruginosa W32
log10(MIC): 0.90

Here's the next entry for you.
Test system Pseudomonas aeruginosa W32; read-out log10(MIC); what value for C[C@@H](O)[C@H]1C(=O)N2C(C(=O)O)=C(S[C@@H]3CN[C@H](C(=O)N(C)C)C3)[C@H](C)[C@H]12 [Meropenem, reference compound] ?
0.60

====

tested on: Acinetobacter baumannii ATCC-BAA-1795; experiment: MIC on Acinetobacter baumannii strains; assay type: cell-based; conditions: ATCCBAA1795
# MIC per entry
Give your result in µg/mL as a bare value.

Worked set:
COMPOUND: CC1(C)[C@H](NC(=O)/C(=N\OCCOc2ccc3c(c2)CCN(CCCNC(=N)N)C3)c2csc(N)n2)C(=O)N1OS(=O)(=O)O
TARGET DESC: Acinetobacter baumannii ATCC-BAA-1795
RESULT UNITS: µg/mL
EXPERIMENTAL RESULT: 4
//
COMPOUND: CC1(C)[C@H](NC(=O)/C(=N\OCCOc2ccc3c(c2)CCN(C(=N)N)C3)c2csc(N)n2)C(=O)N1OS(=O)(=O)O
TARGET DESC: Acinetobacter baumannii ATCC-BAA-1795
RESULT UNITS: µg/mL
EXPERIMENTAL RESULT: 8
//
COMPOUND: C[C@@H](O)[C@H]1C(=O)N2C(C(=O)O)=C(SCCN=CN)C[C@H]12 [Imipenem, reference compound]
TARGET DESC: Acinetobacter baumannii ATCC-BAA-1795
RESULT UNITS: µg/mL
EXPERIMENTAL RESULT: 1
//
COMPOUND: C[C@H]1[C@H](NC(=O)/C(=N\OC(C)(C)C(=O)O)c2csc(N)n2)C(=O)N1S(=O)(=O)O [Aztreonam, reference compound]
TARGET DESC: Acinetobacter baumannii ATCC-BAA-1795
RESULT UNITS: µg/mL
EXPERIMENTAL RESULT: 32

Here's the next entry for you.
Look up MIC: C[C@@H](O)[C@H]1C(=O)N2C(C(=O)O)=C(S[C@@H]3CN[C@H](C(=O)N(C)C)C3)[C@H](C)[C@H]12 [Meropenem, reference compound]
4

====

tested on: Acinetobacter baumannii C315; assay: MIC on clinically isolated bacteria; type: cell-based; details: Acinetobacter baumannii C315; read-out: Minimum Inhibitory Concentration (MIC)
EXPERIMENTAL READOUT: MIC (µg/mL)
Give your result in µg/mL as a bare value.

Worked set:
STRUCTURE NOTATION: CC1(C)[C@H](NC(=O)/C(=N\O[C@@H](COc2ccc3c(c2)CN(C(=N)N(CCN)CCN)C3)C(=O)O)c2csc(N)n2)C(=O)N1OS(=O)(=O)O
RESULT UNITS: µg/mL
MIC: 16

STRUCTURE NOTATION: CC1(C)[C@H](NC(=O)/C(=N\O[C@@H](COc2ccc3c(c2)CN(C(=N)NCCCCN)C3)C(=O)O)c2csc(N)n2)C(=O)N1OS(=O)(=O)O
RESULT UNITS: µg/mL
MIC: 2

Here's the next entry for you.
Look up MIC: CC1(C)[C@H](NC(=O)/C(=N\O[C@@H](COc2ccc3c(c2)CN(/C(=N\[C@@H]2CCCNC2)N[C@@H]2CCCNC2)C3)C(=O)O)c2csc(N)n2)C(=O)N1OS(=O)(=O)O
4
